- Assay system: alanyl aminopeptidases (APN) (Homo sapiens, UniProt P15144)
- Sequence (P15144 whole entry, species assumed): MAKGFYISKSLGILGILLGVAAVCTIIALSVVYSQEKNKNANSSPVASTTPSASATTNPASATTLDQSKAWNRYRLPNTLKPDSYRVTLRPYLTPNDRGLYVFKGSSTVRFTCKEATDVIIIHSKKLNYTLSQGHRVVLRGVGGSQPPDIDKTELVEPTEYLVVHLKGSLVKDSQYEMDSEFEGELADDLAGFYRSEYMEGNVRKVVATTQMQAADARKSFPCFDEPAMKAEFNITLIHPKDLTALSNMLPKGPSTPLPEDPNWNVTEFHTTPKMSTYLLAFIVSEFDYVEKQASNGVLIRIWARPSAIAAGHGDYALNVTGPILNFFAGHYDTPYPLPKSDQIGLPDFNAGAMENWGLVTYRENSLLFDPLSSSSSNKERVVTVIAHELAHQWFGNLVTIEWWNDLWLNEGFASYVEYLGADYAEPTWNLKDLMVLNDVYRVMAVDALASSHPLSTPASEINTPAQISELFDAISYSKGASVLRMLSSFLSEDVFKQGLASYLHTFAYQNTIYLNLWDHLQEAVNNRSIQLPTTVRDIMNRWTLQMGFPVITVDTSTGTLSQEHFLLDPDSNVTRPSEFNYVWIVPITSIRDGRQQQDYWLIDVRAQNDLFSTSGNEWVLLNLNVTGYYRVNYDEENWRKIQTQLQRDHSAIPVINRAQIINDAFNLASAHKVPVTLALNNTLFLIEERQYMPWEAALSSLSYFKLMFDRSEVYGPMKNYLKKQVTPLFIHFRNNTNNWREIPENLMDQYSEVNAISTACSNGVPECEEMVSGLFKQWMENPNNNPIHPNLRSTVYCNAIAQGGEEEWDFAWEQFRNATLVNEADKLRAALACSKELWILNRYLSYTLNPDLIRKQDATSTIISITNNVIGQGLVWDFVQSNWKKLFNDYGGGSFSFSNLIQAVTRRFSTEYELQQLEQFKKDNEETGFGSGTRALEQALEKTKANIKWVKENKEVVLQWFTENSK
- Assay info: Inhibition of alanyl aminopeptidase enzymatic activity, fluorogenic substrate (Ala)2-rhodamine 110
- Type: biochemical
- Condition label: Table 9, unstarred values; read-out: IC50APN
pIC50: −log10 of the molar value.
Metric: pIC50

Compound: Cc1ccc(S(=O)(=O)N2CCC(C(=O)N/N=C/c3ccco3)CC2)cc1 [A9.110]
Measured number: 4.16
--
Compound: O=C(N/C(=C\c1ccco1)C(=O)N1CCOCC1)c1ccccc1Cl [A9.066]
Measured number: 4.59
--
Compound: O=C(CCCCCN1C(=O)c2cccc3cccc(c23)C1=O)NO [A9.032]
Measured number: 4.85
--
Compound: CCOC(=O)C1=C(N)NC2=C(CCCC2)C12C(=O)Nc1ccccc12 (centres unmarked) [A9.088]
Measured number: 4.47
--
Compound: CCOC(=O)C(C#N)c1c([N+](=O)[O-])c(=O)n(-c2ccccc2)c2ccccc12 (centres unmarked) [A9.078]
Measured number: 4.52

[1] CCc1cccc(CC)c1NC(=S)N/N=C1\C(=O)N(CN2CC(C)CC(C)C2)c2ccccc21 (centres unmarked) [A9.011]
[2] Cc1cccc(C)c1Nc1c(-c2ccccc2NC(=O)Nc2cccc(Cl)c2)nc2c(C(=O)NCC(C)C)cccn12 [A9.055]
[3] CSCCC(Nc1ncnc2c1oc1ccccc12)C(=O)O (centres unmarked) [A9.097]
Highest pIC50 first, then in falling order down to the smallest. Lab note: record answer as labels in requested order.
1, 2, 3

---

- Assay system: alanyl aminopeptidases (APN) (Homo sapiens, UniProt P15144)
- Assay info: Inhibition of alanyl aminopeptidase enzymatic activity, fluorogenic substrate (Ala)2-rhodamine 110
- Format: biochemical
- Condition label: Table 6; read-out: IC50APN
pIC50: −log10 of the molar value.
Metric: pIC50

Use the examples below as a reference point.
Molecule: CC1CCCN(S(=O)(=O)c2ccc(NC(=O)/C=C/c3ccco3)cc2)C1 (stereo not shown)
pIC50: 5.08
//
Molecule: O=C(CNS(=O)(=O)c1ccc2c(c1)OCCO2)N/N=C/c1ccco1
pIC50: 4.25

[a] Cc1ccc(S(=O)(=O)CNC(=S)c2ccc(Cl)c(Cl)c2)cc1
[b] O=C(CS(=O)(=O)c1ccc(Cl)cc1)NO
Looking at a and b , which one comes out lower in pIC50 terms? Indicate your choice by writing its label.
a
(a: 4.74, b: 4.94)

---

- Assay system: alanyl aminopeptidases (APN) (Homo sapiens, UniProt P15144)
- Assay info: Inhibition of alanyl aminopeptidase enzymatic activity, fluorogenic substrate (Ala)2-rhodamine 110
- Type: biochemical
- Condition label: Table 12; read-out: IC50APN
Residues, ends and D or L forms follow the SMILES beside them. *: point of attachment. OBn = c1ccc(CO*)cc1
Metric: IC50 (µM)

Use the examples below as a reference point.
Compound: CC(=O)c1cccc(-c2ccc(/C=C3/C(=O)N(CCCO)C(=O)C(C#N)=C3C)o2)c1
IC50 (µM): 18.2

Compound: COc1ccc(Cl)cc1NC(O)CCN1C(=O)C2C3C=CC(C3)C2C1O (stereo not shown)
IC50 (µM): 13.4

[A] CCC(C)C(NC(=O)C(N)CC(=O)OCc1ccccc1)C(=O)NC(Cc1ccccc1)C(=O)OC (stereo not drawn) [A12.016] (H-Asp(OBn)-Ile-Phe-OMe; configuration not given here)
[B] CC1=C(C#N)C(=O)N(CCCO)C(=O)/C1=C\c1ccc(-c2ccc(Br)cc2)o1
Looking at A and B , which one comes out lower in IC50 terms? Indicate your choice by writing its label.
A
(A: 8.6 µM, B: 16 µM)
